The measurements presented in this section are drawn from ChEMBL document CHEMBL6071166.

Test system: Staphylococcus aureus
Method: Antibacterial activity against Staphylococcus aureus Sau 16339 at 0.005 to 1 mg/ml by agar diffusion assay
Format: functional, organism-based
Protocol conditions: dose 0.005-1 mg/ml
Active and inactive are the calls of the source. No cut-off for these calls is given here.
Assay readout: Activity

[
  {
    "Chemical smiles": "COC(=O)/C=C/C=C/C=C/C(C)=C/C=C/c1ccccc1",
    "Assay readout": "Activity",
    "Value observed": "inactive"
  },
  {
    "Chemical smiles": "CC(/C=C/C=C/C=C/C(=O)N[C@@H]1O[C@H](CO)[C@@H](O)[C@H](O[C@@H]2O[C@H](CO)[C@@H](O)[C@H](O[C@@H]3O[C@H](CO[C@@H]4O[C@H](CO)[C@@H](O)[C@H](O)[C@H]4O)[C@@H](O)[C@H](O)[C@H]3O)[C@H]2O)[C@H]1O)=C\\C=C\\c1ccccc1",
    "Assay readout": "Activity",
    "Value observed": "inactive"
  },
  {
    "Chemical smiles": "COC(=O)/C=C/C(C)=C/C=C/C(C)=C/C=C/c1ccccc1",
    "Assay readout": "Activity",
    "Value observed": "inactive"
  },
  {
    "Chemical smiles": "CC(/C=C/C(=O)N[C@@H]1O[C@H](CO)[C@@H](O)[C@H](O[C@@H]2O[C@H](CO)[C@@H](O)[C@H](O[C@@H]3O[C@H](CO[C@@H]4O[C@H](CO)[C@@H](O)[C@H](O)[C@H]4O)[C@@H](O)[C@H](O)[C@H]3O)[C@H]2O)[C@H]1O)=C\\C=C\\c1ccccc1",
    "Assay readout": "Activity",
    "Value observed": "inactive"
  }
]
